- Target: Thrombin (Homo sapiens, UniProt P00734)
- Test Protocol: thrombin inhibition activity assay (D.4), specific activity
- Format: biochemical
- Details: cysteine-PEGylated protein relative to wild type PN-1
Observable: REL TO WT, AFTER PEG MODIFICATION
Please respond with just the number, no unit label.

Query block: Given S1C (conjugate, UniProt P07093 20-398, looked up, variant S1C, PEG) Glia-derived nexin: CHFNPLSLEELGSNTGIQVFNQIVKSRPHDNIVISPHGIASVLGMLQLGADGRTKKQLAMVMRYGVNGVGKILKKINKAIVSKKNKDIVTVANAVFVKNASEIEVPFVTRNKDVFQCEVRNVNFEDPASACDSINAWVKNETRDMIDNLLSPDLIDGVLTRLVLVNAVYFKGLWKSRFQPENTKKRTFVAADGKSYQVPMLAQLSVFRCGSTSAPNDLWYNFIELPYHGESISMLIALPTESSTPLSAIIPHISTKTIDSWMSIMVPKRVQVILPKFTAVAQTDLKEPLKVLGITDMFDSSKANFAKITTGSENLHVSHILQKAKIEVSEDGTKASAATTAILIARSSPPWFIVDRPFLFFIRHNPTGAVLFMGQINKP , state its recorded REL TO WT, AFTER PEG MODIFICATION.
Result block: 0.50
